Organism: Homo sapiens
assay.method.text: Bronchodilation activity against leukotriene D4-induced constriction in human lung small airways assessed as remaining contraction at 10 uM after 1.5 hrs relative to control
Assay type: functional
Response field class: string, computed from recorded Remaining contraction by ranges band 1 (below 50%), band 2 (50% to below 70%), band 3 (70% or more)

Below, 2 compounds whose answers are already recorded.
compound	discrete.label
Oc1cccc2c1CN(C(=S)NCCc1ccc(Cl)cc1)C2	band 3
Oc1cc2c(cc1O)CN(C(=S)NCCc1ccc(Cl)cc1)CC2	band 1

In: // return the class label for Oc1cc2c(cc1O)C(Cc1ccccc1)N(C(=S)NCCc1ccc(Cl)cc1)CC2 (centres undefined)
Out: band 3

In: // return the class label for Oc1cc2c(cc1O)CCN(C(=S)NCCc1ccc(Cl)cc1)CC2
Out: band 2

Source of measurements: ChEMBL document CHEMBL1141641
